- system tested: T1, human EpCAM protein (human, UniProt P16422 24-265, biotinylated in the Octet assays (site not stated))
- T1 construct: also called hu EpCAM; biotinylated human EpCAM protein
- T1 sequence: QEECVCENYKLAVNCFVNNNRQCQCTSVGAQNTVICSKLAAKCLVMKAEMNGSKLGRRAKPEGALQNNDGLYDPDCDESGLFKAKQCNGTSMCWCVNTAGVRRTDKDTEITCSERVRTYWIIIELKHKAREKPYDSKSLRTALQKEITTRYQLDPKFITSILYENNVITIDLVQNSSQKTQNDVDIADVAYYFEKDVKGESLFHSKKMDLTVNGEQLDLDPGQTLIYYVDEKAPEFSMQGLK
- method: colorimetric ELISA
endpoint name: Human EpCAM/Control

Previously resolved entries follow.
EPL164 (VHH) VHH: QVQLQESGGGLVQAGGSLRLSCAASGFIFRAASMDWYRQSPGTQPELVATISSTGFTNYANSVKGRFTISRDNAKNTVYLQMNSLKPEDTAVYFCGATFLRSDGQHSIYGQGTQVTVSS :: 7
EPL58 (VHH) VHH: QVQLQESGGGLVQAGGSLRLSCAASGPIFSDTIRTMGWYRQAAGKQRELVATIASFPSRTNYVDSVKGRFTISRDIAKNTVYLQMDSLKPEDTAVYYCNVDLASIPTKTYWGQGTQVTVSS :: 8

1. EPL31 (VHH) VHH: QVQLQESGGGLVHTGGSLRLSCAASGDTFLRYAMGWFRQAPGKEREFVAAITWNGGNTDYAGSLKGRFTISRDNTKNTVYLQMNSLKPEDTAVYYCAADLTFGLASSHYQYDYWGQGTQVTVSS
2. EPL10 (VHH) VHH: QVQLQESGGGLVQAGGSLRLSCAASGSVFRANVMGWYRQAPGKQHELVARIDPGGTTTYADPVKGRFTISRDNAKKTVYLQMNSLKPDDTAVYYCNAIILLSGGPKDYWGQGTQVTVSS
Smaller Human EpCAM/Control value? Options are 1 and 2 Indicate your choice by writing its label.
1
(1: 7, 2: 12)
